Reference source for all entries: PubChem BioAssay (NCATS)

Test system: Es-2
Assay: Primary qHTS to identify gynecologic anti-cancer compounds using libraries of approved drugs and bioactive compounds (AID 1345084); note: nearly all actives have a fitted effect of over 55% in size
Settings: Gynecologic cancer cell panel viability, ATPlite luminescence, 48 h; series mostly up to 57.5 µM
Records with an inconclusive call do not appear. Calls of active or inactive are those of the source. Calls come from the whole dose curve; as a rule, active = well fitted cell-killing curve with a large enough effect; inconclusive = small, poorly fitted or top-dose-only effect, or effect the other way; inactive = flat fitted curve, though single readings scatter.
result type: outcome

compound="OCCOCCN1CCN(C(c2ccccc2)c2ccc(Cl)cc2)CC1 (configuration not stated)" assay_value=inactive
compound=O=C1Nc2ccccc2C1(c1ccc(O)cc1)c1ccc(O)cc1 assay_value=inactive
compound=CCCCCC(=O)O[C@]1(C(C)=O)CC[C@H]2[C@@H]3CCC4=CC(=O)CC[C@]4(C)[C@H]3CC[C@@]21C assay_value=inactive
compound=CC(C)C(=O)Nc1cccc(C(F)(F)F)c1 assay_value=inactive
compound=NS(=O)(=O)c1ccc(N2CCCCS2(=O)=O)cc1 assay_value=inactive
compound=C[C@@]12CCC[C@H]1[C@@H]1CC[C@H]3C[C@@H](O)CC[C@]3(C)[C@H]1CC2 assay_value=inactive
compound=COc1cc2nc(Cl)nc(N)c2cc1OC assay_value=inactive
compound=CC(C)OP(=O)(CP(=O)(OC(C)C)OC(C)C)OC(C)C assay_value=inactive
compound=CSc1ccc(/C=C2/C(C)=C(CC(=O)O)c3cc(F)ccc32)cc1 assay_value=inactive
compound=CN1CCC(N(Cc2cccs2)c2ccccc2)CC1 assay_value=inactive
compound=COc1cc2c(cc1OC)C(=O)CC2 assay_value=inactive
compound=CN1C(=O)c2ccccc2C1=O assay_value=inactive

* * *

Target: Calcium and integrin-binding protein 1 (Homo sapiens)
Experiment: Primary qHTS for Identification of Calcium Integrin Binding Protein 1 (CIB1) Competitor (AID 1508620);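 note: GST tagged CIB1 binding a fluorescein labelled alphaIIb integrin peptide tracer; top concentration of the series differs between compounds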
Conditions: CIB1-GST / FITC-alphaIIb peptide fluorescence polarization; series mostly up to 114 µM
Description: Assay Provider: Ulhas P. Naik, PhD Sidney Kimmel Medical College Thomas Jefferson University, Philadelphia, PA Primary function of platelets is to maintain hemostasis. At the site of vascular injury, platelets adhere to adhesive proteins such as collagen and von Willebrand factor. […] PROTOCOL TABLES SEQUENCE No. (1, 2, 3, etc.); […] […] 7; ViewLux Fluorescent Polization Read: excitation = 480(20) / emission = 540(25) S and P; FITC Dichroic mirror.
Results filed as inconclusive are left out. Active and inactive are the calls of the source. Calls come from the whole dose curve; as a rule, active = well fitted inhibition curve with a large enough effect; inconclusive = small, poorly fitted or top-dose-only effect; inactive = flat fitted curve, though single readings scatter.
result type: outcome

compound="CC1(C)S[C@@H]2[C@H](NC(=O)C(c3ccccc3)S(=O)(=O)O)C(=O)N2[C@H]1C(=O)O (stereo partly drawn)" assay_value=inactive
compound=CCOC(=O)CN1CCCC1=O assay_value=inactive
compound=Cc1cc(=O)oc2cc(O[C@@H]3SC[C@@H](O)[C@H](O)[C@H]3O)ccc12 assay_value=inactive
compound="CCOC(=O)NNc1ccc(N(CC)CC(C)O)nn1 (stereo not drawn)" assay_value=inactive
compound=CCCCOC(=O)CCCCCCCCC(=O)OCCCC assay_value=inactive
compound="CCCCCC1Nc2cc(C(F)(F)F)c(S(N)(=O)=O)cc2S(=O)(=O)N1 (stereo not drawn)" assay_value=inactive
compound=O=C1CC(c2ccc(Cl)cc2)CC(=O)N1 assay_value=inactive
compound=O=C(O)Cn1c(=O)n(Cc2ccc(Br)cc2F)c(=O)c2ccc(Cl)cc21 assay_value=inactive
compound=O=C1NCCN1CCN1CCC(c2cn(-c3ccc(F)cc3)c3ccc(Cl)cc23)CC1 assay_value=inactive
compound=COC(=O)C1=CO[C@@H](O)[C@@H]2C(CO)=CC[C@H]12 assay_value=inactive
compound=COC(=O)[C@H]1[C@H]2C[C@@H]3c4[nH]c5cc(OC)ccc5c4CCN3C[C@H]2C[C@@H](OC(=O)/C=C/c2ccc(O)c(OC)c2)[C@@H]1OC assay_value=inactive
compound=Nc1c2ccccc2nc2ccccc12 assay_value=inactive
compound=O=C1OC2(c3ccccc31)c1cc(I)c(O)c(I)c1Oc1c2cc(I)c(O)c1I assay_value=inactive
compound=C[C@]12CCC(=O)C=C1CC[C@@H]1[C@@H]2[C@@H](O)C[C@@]2(C)[C@H]1CC[C@]2(O)C(=O)COC(=O)CCC(=O)O assay_value=inactive
compound="CC(=O)Nc1ccn(C2COC(COC(=O)c3ccccc3)O2)c(=O)n1 (stereo not drawn)" assay_value=inactive
compound=Cc1nc2n(c(=O)c1CCN1CCC(C(=O)c3ccc(F)cc3)CC1)CCS2 assay_value=inactive
compound="CC(C)(C)NCC(O)COc1ccccc1OCC1CCCO1 (stereo not drawn)" assay_value=inactive
compound=COC(=O)/C=C\C(=O)OC assay_value=inactive
compound=COc1ccc([C@@H]2Sc3ccccc3NC(=O)[C@@H]2O)cc1 assay_value=inactive
compound="COc1cc(C(=O)NC2CCCNC2)cc(OC)c1OC (stereo not drawn)" assay_value=inactive
compound="CC(NN)c1ccccc1 (stereo not drawn)" assay_value=inactive
compound=CCCc1ccc(OCC(=O)N2CCN(C(=O)COc3ccc(CCC)cc3OC)CC2)c(OC)c1 assay_value=inactive
compound=O=C(O)c1ccccc1S assay_value=inactive
